tested on: ITK; conditions: concentration: 1 μM,replicates: in singlicate; n = 1;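 also: KINOMEscan kinase panel screen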
Observed property: %Inh (%)
Give the number; % is assumed, so skip it.

See these solved cases before continuing.
Compound: CC(C)N1C(=O)Cc2cc(Nc3ncc(C(F)(F)F)c(NCc4cccc(S(C)(=O)=O)c4)n3)ccc21
Result value: 8
//
Compound: CCN(CC)CCCCNc1ncc2cc(-c3c(Cl)cccc3Cl)c(NC(=O)NC(C)(C)C)nc2n1
Result value: 0
//
Compound: Nc1nc(Nc2ccccc2)cc(-c2ccc3c(N)n[nH]c3c2)n1
Result value: 0
//
Compound: Cc1cc(C(=O)Nc2ccc(Oc3ccc4nc(NC(=O)C5CC5)cn4n3)cc2)nn1-c1ccccc1
Result value: 0
//
Compound: C[C@@H]1CCN(C(=O)CC#N)C[C@@H]1N(C)c1ncnc2[nH]ccc12
Result value: 0

Okay, now this compound:
Please tell me: %Inh of Cl.Cl.Nc1nc(-c2ccc3c(N)n[nH]c3c2)cc(N2CCCC(NC(=O)c3ccccc3)C2)n1 (stereo not drawn) , system ITK? 9

----------
tested on: YSK4; construct: gene MAP3K19; conditions: concentration: 1 μM,replicates: in singlicate; n = 1
Threshold check on %Inh: at or above 70% gives Yes, strictly below gives No.

Here's what some known entries look like.
Molecule: Cl.Oc1cc(-c2nc(-c3ccccc3)[nH]c2-c2ccncc2)ccc1Cl [SB-386023]
Group label: No

Molecule: Cl.Cl.NC[C@H](Cc1ccc(C(F)(F)F)cc1)NC(=O)c1cc(Br)c(-c2ccnc3[nH]ccc23)s1 [GSK1487252]
Group label: Yes

Molecule: CN(C)CCOc1ccc(-c2cc(-c3c[nH]nc3-c3ccccn3)ccn2)cc1 [GW835314]
Group label: No

Could you tell me if the measured %Inh of Cc1ccc2c(-c3ccncc3)c(-c3ccc(F)cc3)nn2c1.Cl [GW461484] reaches 70% or more? No

Also CCN(CC)CCCCNc1ncc2cc(-c3c(Cl)cccc3Cl)c(NC(=O)NC(C)(C)C)nc2n1 , if possible. No

Also NC(=O)c1cc(-c2ccccc2)cc2c(C3CCNCC3)c[nH]c12 [GSK301362] , if possible. No

Also O=C(NCCNc1ccnc(NCc2ccc(F)cc2)n1)c1cc2ccccc2s1 [GSK1379944] , if possible. No

Also C[C@H]1Oc2cc(cnc2N)-c2c(nn(C)c2C#N)CN(C)C(=O)c2ccc(F)cc21 , if possible. No

Also CCN(CC)CCOc1ccc(Nc2ncc3cc(-c4c(Cl)cccc4Cl)c(=O)n(C)c3n2)cc1 [SB-601273] , if possible. Yes

Also CNC(=O)c1ccccc1Sc1ccc2c(/C=C/c3ccccn3)n[nH]c2c1 , if possible. Yes

Also O=C(NCCCN1CCOC1=O)c1cnc(NCc2cc(Cl)ccc2Cl)nc1NC1CCCC1 , if possible. No

Also Cc1n[nH]c2ccc(-c3cc(OC[C@@H](N)Cc4ccccc4)cnc3-c3ccoc3)cc12.O=C(O)C(F)(F)F.O=C(O)C(F)(F)F [GSK507358] , if possible. Yes

Also C=CC(=O)Nc1cc2c(Nc3ccc(F)c(Cl)c3)ncnc2cc1OCCCN1CCOCC1 [GW781483] , if possible. No

Also Cc1ccc(-n2nc(C(C)(C)C)cc2NC(=O)Nc2ccc(OCCN3CCOCC3)c3ccccc23)cc1 [GW839464] , if possible. No

Hey, just so you know, these numbers are from paper PMC5540273.
